assay: Evaluation of pharmacokinetics in rats; format: in vivo, SD rats; conditions: rat, in vivo, po; male SD rats, 10 mg/kg intragastric, mean, n = 4; read-out: Cmax
measurementLabel: Cmax (ng/mL)
Field format: number, assumed ng/mL, no unit text.

## Input Recall and state the measured Cmax for [2H]C([2H])([2H])NC(=O)c1ccc(N2C(=S)N(c3cnc(C#N)c(C(F)(F)F)c3)C(=O)C23CCC3)cc1F .
## Output 1700

====

Assignment: determine reported Tmax for the given compounds.
assay: Evaluation of pharmacokinetics in mice; assay type: in vivo, Kunming mice (KM mice); conditions: Kunming (KM), mouse, po; male KM mice, 10 mg/kg intragastric, plasma
Field format: number, assumed h, no unit text.

## Input Recall and state the measured Tmax for [2H]c1cc(C(=O)NC([2H])([2H])[2H])c(F)c([2H])c1N1C(=S)N(c2cnc(C#N)c(C(F)(F)F)c2)C(=O)C12CCC2 [Compound 20] .
## Output 4

## Input Recall and state the measured Tmax for [2H]c1cc(C(=O)NC)c(F)c([2H])c1N1C(=S)N(c2cnc(C#N)c(C(F)(F)F)c2)C(=O)C12CCC2 [Compound 17] .
## Output 6

## Input Recall and state the measured Tmax for [2H]C([2H])([2H])NC(=O)c1ccc(N2C(=S)N(c3cnc(C#N)c(C(F)(F)F)c3)C(=O)C23CCC3)cc1F [Compound 14] .
## Output 4

## Input Recall and state the measured Tmax for CNC(=O)c1ccc(N2C(=S)N(c3cnc(C#N)c(C(F)(F)F)c3)C(=O)C23CCC3)cc1F [Compound 10, reference compound] .
## Output 6
